Source: paper PMC4207537

- STUDY TARGET: E. coli topoisomerase IV (Escherichia coli, UniProt P0AFI2+P20083)
- Sequence (P0AFI2 whole entry): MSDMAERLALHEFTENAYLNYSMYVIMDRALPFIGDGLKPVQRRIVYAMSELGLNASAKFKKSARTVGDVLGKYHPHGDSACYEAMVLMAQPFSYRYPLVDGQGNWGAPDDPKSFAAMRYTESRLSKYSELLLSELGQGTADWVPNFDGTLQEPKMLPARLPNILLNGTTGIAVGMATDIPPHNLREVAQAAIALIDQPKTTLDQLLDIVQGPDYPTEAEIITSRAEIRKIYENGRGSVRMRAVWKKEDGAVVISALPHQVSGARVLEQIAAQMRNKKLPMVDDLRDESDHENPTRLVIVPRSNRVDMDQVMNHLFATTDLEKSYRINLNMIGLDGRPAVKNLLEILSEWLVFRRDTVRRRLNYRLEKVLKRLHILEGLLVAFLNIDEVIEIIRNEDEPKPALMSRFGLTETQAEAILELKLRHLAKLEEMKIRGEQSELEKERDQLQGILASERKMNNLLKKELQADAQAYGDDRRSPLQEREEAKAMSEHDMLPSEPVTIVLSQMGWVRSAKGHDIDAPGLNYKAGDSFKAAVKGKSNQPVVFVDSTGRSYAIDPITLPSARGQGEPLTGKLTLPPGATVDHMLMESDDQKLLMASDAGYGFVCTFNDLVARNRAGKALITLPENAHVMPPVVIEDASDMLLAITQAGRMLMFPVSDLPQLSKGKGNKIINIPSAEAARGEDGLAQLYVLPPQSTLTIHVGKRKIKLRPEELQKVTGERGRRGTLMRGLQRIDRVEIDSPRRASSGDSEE
- Sequence (P20083 whole entry): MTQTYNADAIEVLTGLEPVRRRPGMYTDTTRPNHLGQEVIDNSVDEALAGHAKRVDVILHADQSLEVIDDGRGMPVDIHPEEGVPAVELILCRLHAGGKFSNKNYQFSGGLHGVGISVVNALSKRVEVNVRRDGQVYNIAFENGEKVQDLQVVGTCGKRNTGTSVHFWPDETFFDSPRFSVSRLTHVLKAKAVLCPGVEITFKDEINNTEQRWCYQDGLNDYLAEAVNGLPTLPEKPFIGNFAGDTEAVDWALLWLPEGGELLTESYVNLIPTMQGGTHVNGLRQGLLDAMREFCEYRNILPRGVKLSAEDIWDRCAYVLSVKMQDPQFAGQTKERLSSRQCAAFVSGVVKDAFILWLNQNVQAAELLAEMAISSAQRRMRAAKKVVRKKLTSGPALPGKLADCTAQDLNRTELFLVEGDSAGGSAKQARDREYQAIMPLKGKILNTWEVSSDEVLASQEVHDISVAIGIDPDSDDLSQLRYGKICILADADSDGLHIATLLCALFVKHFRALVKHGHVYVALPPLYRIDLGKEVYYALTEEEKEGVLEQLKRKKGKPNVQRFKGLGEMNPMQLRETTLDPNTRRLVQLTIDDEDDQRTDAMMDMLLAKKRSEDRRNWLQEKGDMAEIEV
- EXPERIMENTAL DETAILS: E. coli topoisomerase IV decatenation assay
pIC50: −log10 of the molar value.
PARAMETER MEASURED: pIC50

• CCCCCCCCOc1ccccc1C1CC(=O)c2ccc(O)cc2O1 (stereo not drawn) = < 3.00
• CC[C@H](C)C(=O)c1c(O)cc(O)cc1OC/C=C(\C)CCC=C(C)C = 4.22 to 4.52
• C=CCOc1ccccc1/C=C/C(=O)c1ccc(O)cc1O = 3.30 to 3.60
• CC1(C)C2CC=C(/C=C/C(=O)c3ccc(O)cc3O)C1C2 (stereo not drawn) = 3.92 to 4.22
• O=C(/C=C/c1ccc(N2CCCCC2)cc1)c1ccc(O)cc1O = 3.00 to 3.30
• CCCCCCCC1CC(=O)c2c(O)cc(O)cc2O1 (stereo not drawn) [Compound 5f, 2-Heptyl-5,7-dihydroxychroman-4-one] = 3.60 to 3.92
• CCCCCCOc1ccccc1/C=C/C(=O)c1ccc(O)cc1O = 3.92 to 4.22
• CCCCCCOc1ccccc1C1CC(=O)c2ccc(O)cc2O1 (stereo not drawn) = < 3.00
• CCCCCCCCOc1cc(O)cc(O)c1C(=O)C(C)CC (stereo not drawn) = 4.22 to 4.52
